// data source = patent US20090304692A1

Subject Of Test: UniProt:P48736
Test Summary: PI3K-gamma fluorescence polarization assay
Assay Setup: read-out: IC50 PI3Kγ; listed as 735
Assay Metric: IC50 (nM)
Unit nM implied. Number only.

Exam item: For UniProt:P48736, provide IC50 of CN(C)CCNCCCc1nc(-c2ccc(NC(=O)Nc3ccncc3)cc2)nc(N2CCOCC2)n1 please.
Marked response: 290

---

Subject Of Test: PI3K-γ (Homo sapiens, UniProt P48736)
Sequence (P48736 whole entry, species assumed): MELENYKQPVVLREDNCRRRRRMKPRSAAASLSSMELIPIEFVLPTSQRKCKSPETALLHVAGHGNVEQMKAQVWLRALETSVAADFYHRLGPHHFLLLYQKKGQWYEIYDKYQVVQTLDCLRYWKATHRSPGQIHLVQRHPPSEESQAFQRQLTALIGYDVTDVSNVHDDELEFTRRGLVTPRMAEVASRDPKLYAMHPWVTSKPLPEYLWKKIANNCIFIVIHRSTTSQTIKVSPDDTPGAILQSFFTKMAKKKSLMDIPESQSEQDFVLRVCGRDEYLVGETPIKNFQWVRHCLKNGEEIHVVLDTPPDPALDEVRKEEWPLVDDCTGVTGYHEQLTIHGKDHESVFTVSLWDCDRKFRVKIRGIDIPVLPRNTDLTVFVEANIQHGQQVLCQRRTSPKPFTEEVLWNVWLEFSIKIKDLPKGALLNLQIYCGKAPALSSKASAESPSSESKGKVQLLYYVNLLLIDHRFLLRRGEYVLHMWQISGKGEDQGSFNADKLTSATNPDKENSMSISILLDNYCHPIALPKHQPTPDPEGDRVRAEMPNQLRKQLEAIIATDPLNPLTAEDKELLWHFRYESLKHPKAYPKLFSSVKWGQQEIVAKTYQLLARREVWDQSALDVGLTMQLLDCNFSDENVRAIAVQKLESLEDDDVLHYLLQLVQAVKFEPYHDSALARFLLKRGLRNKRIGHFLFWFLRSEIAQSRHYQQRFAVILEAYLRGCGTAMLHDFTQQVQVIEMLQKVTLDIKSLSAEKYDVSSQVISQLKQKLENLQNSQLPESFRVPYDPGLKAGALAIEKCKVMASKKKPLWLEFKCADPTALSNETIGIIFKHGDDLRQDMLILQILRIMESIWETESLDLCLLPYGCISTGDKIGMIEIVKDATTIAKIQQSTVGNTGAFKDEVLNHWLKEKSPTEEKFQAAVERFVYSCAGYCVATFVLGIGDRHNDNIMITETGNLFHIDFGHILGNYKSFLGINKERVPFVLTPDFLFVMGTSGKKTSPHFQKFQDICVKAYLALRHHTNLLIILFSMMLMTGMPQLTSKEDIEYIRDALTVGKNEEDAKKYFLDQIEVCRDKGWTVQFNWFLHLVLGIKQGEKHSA
Test Summary: PI3K-gamma fluorescence polarization assay
Assay Setup: read-out: IC50 PI3Kγ
Assay Metric: IC50
Param answer (str): number followed by unit.

Recorded results for 3 molecules are shown here.
> print(dat)
                                chem.smiles  assay.metric  value.observed
1  CCc1nc(-c2ccc(NC(=O)Nc3cccc(C(=O)N4CCN(c5ccccn5)CC4)c3)cc2)nc(N2CCOCC2)n1          IC50          675 nM
2  O=C(Nc1ccncc1)Nc1ccc(-c2nc(OC3CCOCC3)nc(N3CCOCC3)n2)cc1          IC50           30 nM
3  COCC(COC)Oc1nc(-c2ccc(NC(=O)OCCO)cc2)nc(N2CC3CCC(C2)O3)n1          IC50         3730 nM

Consider now this further molecule.
Exam item: Look up IC50: C[C@H]1COCCN1c1nc(-c2ccc(NC(=O)Nc3ccc(C(=O)N4CCCC4)cc3)cc2)nc(N2CCOC[C@@H]2C)n1
Marked response: 108 nM

---

System: human breast MDA-MB-361 tumor cell line
Test Summary: In vitro cell culture growth assay (MTS), MDA-MB-361
Format: cell-based
Assay Setup: Homo sapiens, MDA-MB-361, 72 h, read-out: IC50 MDA-MB-361
Assay Metric: pIC50
Friendly reminder that pIC50 comes from taking -log10 of the concentration in mol/L.

> print(dat)
                                   compound  assay.metric  value.observed
1  COc1nc(-c2ccc(NC(=O)Nc3ccc(C(=O)N4CCN(C)CC4)cc3)cc2)nc(N2CCOCC2)n1 [Example 246]         pIC50            7.46

Exam item: Look up pIC50: CNCCN(C)C(=O)c1ccc(NC(=O)Nc2ccc(-c3nc(OC)nc(N4CCOCC4)n3)cc2)cc1 [Example 245]
Marked response: 6.96

---

Subject Of Test: UniProt P42336
Sequence (P42336 whole entry, species assumed): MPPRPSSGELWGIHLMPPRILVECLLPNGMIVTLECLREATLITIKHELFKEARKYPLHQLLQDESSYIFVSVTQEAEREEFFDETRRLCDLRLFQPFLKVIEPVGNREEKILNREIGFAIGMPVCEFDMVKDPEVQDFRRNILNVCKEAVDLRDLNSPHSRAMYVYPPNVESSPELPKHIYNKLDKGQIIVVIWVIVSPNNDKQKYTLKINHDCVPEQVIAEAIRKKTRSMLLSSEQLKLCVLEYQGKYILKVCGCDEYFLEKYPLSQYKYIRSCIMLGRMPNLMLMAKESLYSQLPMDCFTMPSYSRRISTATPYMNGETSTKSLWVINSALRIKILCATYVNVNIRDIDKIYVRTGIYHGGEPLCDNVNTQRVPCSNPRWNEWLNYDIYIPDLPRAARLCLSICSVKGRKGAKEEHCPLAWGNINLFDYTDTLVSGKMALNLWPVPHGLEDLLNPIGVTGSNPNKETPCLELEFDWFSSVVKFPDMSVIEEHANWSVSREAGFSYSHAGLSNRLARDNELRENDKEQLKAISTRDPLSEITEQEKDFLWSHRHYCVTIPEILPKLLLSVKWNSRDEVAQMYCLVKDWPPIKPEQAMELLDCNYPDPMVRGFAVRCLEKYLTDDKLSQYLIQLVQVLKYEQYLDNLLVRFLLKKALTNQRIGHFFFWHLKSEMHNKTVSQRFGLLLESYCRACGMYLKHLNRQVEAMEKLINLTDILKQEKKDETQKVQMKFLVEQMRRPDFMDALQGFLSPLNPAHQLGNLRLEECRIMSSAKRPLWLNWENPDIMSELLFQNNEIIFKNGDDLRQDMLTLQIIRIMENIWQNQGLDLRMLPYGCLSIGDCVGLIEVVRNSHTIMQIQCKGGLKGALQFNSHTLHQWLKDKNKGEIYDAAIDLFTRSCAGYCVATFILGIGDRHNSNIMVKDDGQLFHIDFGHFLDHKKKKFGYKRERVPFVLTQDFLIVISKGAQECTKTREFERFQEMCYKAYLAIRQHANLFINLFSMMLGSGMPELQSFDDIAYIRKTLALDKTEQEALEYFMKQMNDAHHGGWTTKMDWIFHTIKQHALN
Sequence (P27986 whole entry partner, species assumed): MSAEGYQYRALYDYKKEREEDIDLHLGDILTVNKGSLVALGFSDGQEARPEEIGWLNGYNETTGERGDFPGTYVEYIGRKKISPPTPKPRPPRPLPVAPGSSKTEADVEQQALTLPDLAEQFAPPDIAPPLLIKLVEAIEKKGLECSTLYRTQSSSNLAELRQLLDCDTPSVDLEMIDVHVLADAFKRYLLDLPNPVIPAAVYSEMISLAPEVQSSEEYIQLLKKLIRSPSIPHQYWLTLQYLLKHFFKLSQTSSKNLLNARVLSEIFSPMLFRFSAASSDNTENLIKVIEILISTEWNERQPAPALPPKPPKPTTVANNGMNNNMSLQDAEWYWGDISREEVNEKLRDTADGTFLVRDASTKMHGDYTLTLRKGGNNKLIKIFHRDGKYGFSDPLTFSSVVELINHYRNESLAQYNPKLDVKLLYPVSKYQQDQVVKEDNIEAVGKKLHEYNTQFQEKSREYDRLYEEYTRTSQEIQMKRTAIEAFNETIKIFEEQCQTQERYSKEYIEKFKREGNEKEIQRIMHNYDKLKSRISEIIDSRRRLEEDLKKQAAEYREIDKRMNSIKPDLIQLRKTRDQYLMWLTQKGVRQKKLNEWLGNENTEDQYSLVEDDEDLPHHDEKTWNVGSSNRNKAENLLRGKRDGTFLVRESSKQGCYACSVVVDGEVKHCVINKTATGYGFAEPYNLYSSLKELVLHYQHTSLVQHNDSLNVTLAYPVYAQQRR
Test Summary: PI3K-alpha fluorescence polarization assay
Assay Setup: read-out: IC50 PI3Kα; listed as 721
Assay Metric: pIC50
Friendly reminder that pIC50 comes from taking -log10 of the concentration in mol/L.

Exam item: Look up pIC50: COc1nc(-c2ccc(NC(=O)Nc3ccc(C(=O)NCCN(C)C)cc3)cc2)nc(N2CCOCC2)n1 [Example 244]
Marked response: 9.22

---

Subject Of Test: PI3K-γ (Homo sapiens, UniProt P48736)
Test Summary: PI3K-gamma fluorescence polarization assay
Assay Setup: read-out: IC50 PI3Kγ; listed as 734
Assay Metric: IC50 (nM)
Unit nM implied. Number only.

Exam item: Look up IC50: CN1CCN(CCCc2nc(-c3ccc(NC(=O)Nc4ccncc4)cc3)nc(N3CCOCC3)n2)CC1
Marked response: 210

---

Subject Of Test: PI3K-γ (Homo sapiens)
Test Summary: PI3K-gamma fluorescence polarization assay
Assay Setup: read-out: IC50 PI3Kγ; listed as 507
Assay Metric: IC50 (nM)
Unit nM implied. Number only.

Exam item: Look up IC50: CN1CCN(C(=O)c2ccc(NC(=O)Nc3ccc(-c4nc(C5=CCOCC5)nc(N5CCOCC5)n4)cc3)cc2)CC1
Marked response: 8.7
